# hAM1R EC50 (cAMP) values compiled below
- study-system: hAM1R (human, UniProt Q16602)
- experiment-description: cell-based or functional assay
Numbered stars: 1 amine (or outer) side, 2 acyl side, 3 side chain; on linkers, the order of the positions; unused ones are H or OH. Bridge positions count the residues as written; N and C are the ends. Square brackets hold non-standard residues; d marks the D form. Side chains are listed from the residue outwards. Ends that are not written are not given here. * marks the point of attachment. C20 diacid = O=C(O)CCCCCCCCCCCCCCCCCCC(=O)*; γGlu = O=C(O)[C@H](CCC(=O)[*:2])N[*:1]; Hyp = O=C(O)[C@@H]1C[C@@H](O)CN1; Cit = NC(=O)NCCC[C@H](N)C(=O)O; AEEA = NCCOCCOCC(=O)O

[
  {
    "binder": "{C20 diacid-γGlu}-KCNTATCTVQRLAEQIYQFTDKDKDQVAPPTNVGSNG[Hyp]-NH2 (disulfide 2-7 (inferred); ends not checked) [SEQ ID NO: 100]",
    "hAM1R EC50 (cAMP)": "> 5 µM"
  },
  {
    "binder": "KCNAATCTVQWLAEQIYQFTDKDKDNVAPPTNVGSNG[Hyp]-NH2 (disulfide 2-7 (inferred); ends not checked) [SEQ ID NO: 333]",
    "hAM1R EC50 (cAMP)": "0.107 µM"
  },
  {
    "binder": "{C20 diacid-γGlu}-GCRFGTCTVQRLAHFLYQFTDKDKDNVAPRTNVGSNTY-NH2 (disulfide 2-7 (inferred); ends not checked) [SEQ ID NO: 208]",
    "hAM1R EC50 (cAMP)": "0.242 µM"
  },
  {
    "binder": "KCNTATCTVQ[Cit]LAHQIAQFTDKDKDNVAPPTNVGSNG[Hyp]-NH2 (disulfide 2-7 (inferred); ends not checked) [SEQ ID NO: 246]",
    "hAM1R EC50 (cAMP)": "> 5 µM"
  },
  {
    "binder": "KCNTATCTVQRLAHQIYQFTDKDKDNVAPTNVGSNG[Hyp]-NH2 (disulfide 2-7 (inferred); ends not checked) [SEQ ID NO: 31]",
    "hAM1R EC50 (cAMP)": "> 5 µM"
  },
  {
    "binder": "KCNTATCTVQRLAEQIYQFK([AEEA-AEEA-γGlu-C20 diacid])DKDKDNVAPPTNVGSNG[Hyp]-NH2 (disulfide 2-7 (inferred); not fully specified; ends not checked) [SEQ ID NO: 89]",
    "hAM1R EC50 (cAMP)": "> 5 µM"
  },
  {
    "binder": "GCRTGTCTVQRLAHQIYQFTDKFKDNVAPRSKISPQY[Hyp]-NH2 (disulfide 2-7 (inferred); ends not checked) [SEQ ID NO: 186]",
    "hAM1R EC50 (cAMP)": "> 5 µM"
  },
  {
    "binder": "{C20 diacid-γGlu}-KCNTATCTVQRLAHQIYQFYDKDKDNVAPPTNVGSNG[Hyp]-NH2 (disulfide 2-7 (inferred); ends not checked) [SEQ ID NO: 104]",
    "hAM1R EC50 (cAMP)": "> 5 µM"
  },
  {
    "binder": "GCRTGTCTVQWLAHQIYQFTDKDKDNVAPRSKVGPQGY [SEQ ID NO: 344]",
    "hAM1R EC50 (cAMP)": "> 5 µM"
  }
]

The reported measurements were obtained from patent US12139520B2.
